Ref: patent US9266921B2

# Activity of the PGC-1α promoter (%) annotations
- Test system: human PGC-1α promoter
- test: Modulation of the human PGC-1α promoter activity (luciferase reporter, Hep G2)
- Format: cell-based
- particulars: Hep G2 transfected with luciferase under human PGC-1α promoter; peptide 0.5 mg/mL, 24 hours; normalized to carrier = 100%

substance: Ac-L-Ser-L-Ile-L-Tyr-L-Val-L-Arg-L-Val-NH2 (Ac-SIYVRV-NH2) [Ac-SEQ ID NO. 34-NH2]
test system: human PGC-1α promoter
Activity of the PGC-1α promoter (%): 134%
--
substance: Ac-L-Ser-L-Val-L-Val-L-Val-Gly-L-Val-NH2 (Ac-SVVVGV-NH2) [Ac-SEQ ID NO. 48-NH2]
test system: human PGC-1α promoter
Activity of the PGC-1α promoter (%): 75%
--
substance: Ac-L-Ser-L-Ile-L-Tyr-L-Val-Gly-L-Thr-NH2 (Ac-SIYVGT-NH2) [Ac-SEQ ID NO. 18-NH2]
test system: human PGC-1α promoter
Activity of the PGC-1α promoter (%): 64%
--
substance: Ac-L-Ser-L-Ile-L-Val-L-Val-Gly-L-Thr-NH2 (Ac-SIVVGT-NH2) [Ac-SEQ ID NO. 22-NH2]
test system: human PGC-1α promoter
Activity of the PGC-1α promoter (%): 63%
--
substance: Ac-L-Ser-L-Val-L-Tyr-L-Val-L-Arg-L-Val-NH2 (Ac-SVYVRV-NH2) [Ac-SEQ ID NO. 36-NH2]
test system: human PGC-1α promoter
Activity of the PGC-1α promoter (%): 136%
--
substance: Ac-L-His-L-Val-L-Tyr-L-Val-L-Ala-L-Thr-NH2 (Ac-HVYVAT-NH2) [Ac-SEQ ID NO. 4-NH2]
test system: human PGC-1α promoter
Activity of the PGC-1α promoter (%): 77%
--
substance: Ac-L-Ser-L-Val-L-Val-L-Val-L-Arg-L-Val-NH2 (Ac-SVVVRV-NH2) [Ac-SEQ ID NO. 40-NH2]
test system: human PGC-1α promoter
Activity of the PGC-1α promoter (%): 141%

----------
- Test system: human PGC-1α promoter
- test: Modulation of the human PGC-1α promoter activity (luciferase reporter, Hep G2)
- Type: cell-based
- particulars: Hep G2 transfected with luciferase under human PGC-1α promoter; peptide 0.5 mg/mL, 24 hours; normalized to carrier = 100%
# Activity of the PGC-1α promoter (%) annotations
readout type: Activity of the PGC-1α promoter (%)

substance: Ac-L-His-L-Val-L-Tyr-L-Val-Gly-L-Val-NH2 (Ac-HVYVGV-NH2) [Ac-SEQ ID NO. 43-NH2]
test system: human PGC-1α promoter
unit abbreviation: %
measurement: 75
--
substance: Ac-L-His-L-Val-L-Tyr-L-Val-L-Arg-L-Thr-NH2 (Ac-HVYVRT-NH2) [Ac-SEQ ID NO. 12-NH2]
test system: human PGC-1α promoter
unit abbreviation: %
measurement: 114
--
substance: Ac-L-His-L-Val-L-Tyr-L-Val-L-Ala-L-Val-NH2 (Ac-HVYVAV-NH2) [Ac-SEQ ID NO. 27-NH2]
test system: human PGC-1α promoter
unit abbreviation: %
measurement: 42
--
substance: Ac-L-Ser-L-Val-L-Val-L-Val-L-Ala-L-Val-NH2 (Ac-SVVVAV-NH2) [Ac-SEQ ID NO. 32-NH2]
test system: human PGC-1α promoter
unit abbreviation: %
measurement: 82
